These measurements were taken from PubChem BioAssay AID1845203.

Test system: G-401 tumor spheroids, viability % test/control
assay.protocol: Anticancer human tumor G-401 cell line growth inhibition;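 further: spheroids exposed to compound for 7 days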
assay.setup: curve of first compound; second compound 0.00949 µM; spheroids with HUVEC and MSC
pIC50: −log10 of the molar value.
The molecules listed here are annotated with their pIC50.
measurement.name: pIC50

molecule="[2H]c1nc(C)nc([2H])c1-c1cc(NC[C@@H](C)c2cccc3c(C(=O)NC)ccnc23)ncn1 + CC[C@@]1(O)C(=O)OCc2c1cc1n(c2=O)Cc2cc3c(CN(C)C)c(O)ccc3nc2-1" observed_value="> 7.50"
molecule="Cc1sc2c(c1C)C(c1ccc(Cl)cc1)=NC(CC(=O)Nc1ccc(O)cc1)c1nnc(C)n1-2 (stereo not given) + CC[C@@]1(O)C(=O)OCc2c1cc1n(c2=O)Cc2cc3c(CN(C)C)c(O)ccc3nc2-1" observed_value="> 8.02"
molecule="CC1COCCN1c1cc(-c2ccnn2C)c2ccnc(-c3ccn[nH]3)c2n1 (stereo not given) + CC[C@@]1(O)C(=O)OCc2c1cc1n(c2=O)Cc2cc3c(CN(C)C)c(O)ccc3nc2-1" observed_value="> 7.50"
molecule="O=C(c1cc(Cc2n[nH]c(=O)c3ccccc23)ccc1F)N1CCN(C(=O)C2CC2)CC1 + CC[C@@]1(O)C(=O)OCc2c1cc1n(c2=O)Cc2cc3c(CN(C)C)c(O)ccc3nc2-1" observed_value="> 7.02"
molecule="Cn1ncnc1[C@H]1c2n[nH]c(=O)c3cc(F)cc(c23)N[C@@H]1c1ccc(F)cc1 + CC[C@@]1(O)C(=O)OCc2c1cc1n(c2=O)Cc2cc3c(CN(C)C)c(O)ccc3nc2-1" observed_value="> 8.02"
